Consider the following compounds; for each one, report its relative viability.
System: NCI-H1793
Test: relative viability (nuclei count vs DMSO), 5 days (fraction); higher = more cells survive
Conditions: first compound 2.53 µM
Give bare numbers.

Example entries begin here.
- compound: "O=c1[nH]c2ccccc2n1C1CCN(CCCC(c2ccc(F)cc2)c2ccc(F)cc2)CC1 [Pimozide] + Nc1ncn([C@H]2C[C@H](O)[C@@H](CO)O2)c(=O)n1 [Decitabine] (partner 2 µM)"
  value: 0.556
- compound: "O=c1[nH]c2ccccc2n1C1CCN(CCCC(c2ccc(F)cc2)c2ccc(F)cc2)CC1 [Pimozide] + Cc1nc(NC(=O)N2CCC[C@H]2C(N)=O)sc1-c1ccnc(C(C)(C)C(F)(F)F)c1 [Alpelisib] (partner 2 µM)"
  value: 0.665
- compound: "O=c1[nH]c2ccccc2n1C1CCN(CCCC(c2ccc(F)cc2)c2ccc(F)cc2)CC1 [Pimozide] + CC(=O)Nc1cccc(-n2c(=O)n(C3CC3)c(=O)c3c(Nc4ccc(I)cc4F)n(C)c(=O)c(C)c32)c1 [Trametinib] (partner 0.02 µM)"
  value: 0.44

Please look at the following compound next.
Reported relative viability, compound O=c1[nH]c2ccccc2n1C1CCN(CCCC(c2ccc(F)cc2)c2ccc(F)cc2)CC1 [Pimozide] + C[C@]1(O)C[C@@H](c2nc(-c3ccc4ccc(-c5ccccc5)nc4c3)c3c(N)nccn32)C1 [Linsitinib] (partner 1 µM) : ____
0.88
